FYI, the data here is from PubChem BioAssay (NCI).

# System: MDA-MB-435 melanoma
# protocol summary: NCI-60 one-dose screen, 48 h (100 = growth as untreated, 0 = no growth, -100 = all killed)
# condition parameters: 10 µM unless noted
The panel holds about 83,000 compounds, 20% with a hit somewhere; the sample as a whole holds those more often.
Decide by growth: equal to or exceeding 40% means Condition met, less means Condition not met.

As a guide, the following entries are already answered.
Exam item: decide whether the reported growth for O=C1C=CC(=O)N1c1cc(Cl)c(Cl)cc1Cl is at least 40%.
Condition met

Decide: growth of CCNc1nnnn1CC >= 40%?
Condition met

hey, is growth for this one >= 40%? O=C(/C=C/C(Cl)(Cl)Cl)Nc1ccc(Cl)cc1
Condition met

Decide: growth of CCCCCCCCCCCC[S+](C)CC(=O)[O-] (centres undefined) >= 40%?
Condition met

Evaluate Nc1nc(-c2ccccc2)nc(N)c1N=O : growth at minimum 40%?
Condition met

Hello, I need to know if COc1ccc(NC(=O)/C(=C/N2C(=O)/C(=C/c3ccc(OC)c(OC)c3)NC2=S)C(C)=O)cc1 has measured growth not below 40%. Thanks!
Condition met

***
Decide: is the reported value of growth for COc1ccc(C(Cn2ccnc2)Sc2ccc(Cl)c(Cl)c2)cc1 (centres undefined) equal to or greater than 40%?
Condition met

====

# Tested on: PC-3 prostate
# protocol summary: NCI-60 one-dose screen, 48 h (100 = growth as untreated, 0 = no growth, -100 = all killed)
# condition parameters: 10 µM unless noted
Compounds without any hit were thinned out: in the full panel of roughly 83,000, 20% have a hit.
Lab note - cut at 60% for growth: t if strictly below, f if not.

Does the reported growth of CCN(CC)CCNC(Cc1ccccc1)c1ccc(OCc2ccccc2)cc1 (configuration not stated) stay below 60%?
t

Here's an entry: CC(C)(C)CC(C)(C)c1ccc(OCCOCCSC(=N)N)cc1 . Is its growth below 60%?
t

Threshold test, growth < 60%: Cc1c(O)ccc(SC#N)c1C
f

A record lists O=C(NOC(=O)c1ccccc1)c1ccccc1 . Is its growth below 60%?
f

Does CCCCCCCCCCCC1N=C(N)N=C(N)N1c1cccc(Br)c1 (configuration not stated) have growth strictly under 60%?
t

Hi there! Is growth for NC(=S)N/N=C\c1nccc2c(C(F)(F)F)cccc12 below 60%, do you know?
t

In the record for O=C1C=Cc2ccccc2/C1=C/c1nc(-c2ccccc2)oc1O , is growth less than 60%?
f

Hello, is growth of the following compound strictly smaller than 60%? CCCCCCC1N=C(N)N=C(N)N1c1cccc(Cl)c1 (configuration not stated)
t

---
Take the compound CCCCCCCCCCCC(=O)OC(C)C(=O)NCCCC (configuration not stated) and say whether its growth is less than 60%.
f

Find out if reported growth for CCOC(=O)c1c(C)[nH]c2ccc(O)cc12 is less than 60%
f

In plain terms, does CCc1oc2ccccc2c1C(=O)c1cc(Br)c(O)c(Br)c1 come in under 60% for growth?
f

Given the entry O=C1C=C(Cl)C(=O)c2ccccc21 , would its reported growth be below 60%?
f

====

# Tested on: K-562 leukemia
# protocol summary: NCI-60 one-dose screen, 48 h (100 = growth as untreated, 0 = no growth, -100 = all killed)
# condition parameters: 10 µM unless noted
Compounds without any hit were thinned out: in the full panel of roughly 83,000, 20% have a hit.
Recorded growth values for a group of compounds are listed next.
Reply with just the number (in %).

See these solved cases before continuing.
# query: growth of entry Cc1cc(C(=C2C=CC(=Nc3ccccc3)C=C2)c2ccc(Nc3ccccc3)cc2)ccc1N
14.1

Given Clc1ccc(-n2ncc3c(NCCCN4CCOCC4)ncnc32)cc1 , state its recorded growth.
94.2

Query (compound): CN1CCC(CN2c3ccccc3Sc3ccccc32)C1 (stereo not given) ; field requested: growth
38

Name the recorded growth for Cc1cc(I)nc2ccccc12 .
108

Quick check: growth of CCCc1cc(=O)oc2c3c(c4c(c12)OC(C)(C)CC4)OC(C)[C@H](C)[C@@H]3O (stereo not given in full) ?
71.2

Consider now this further compound.
// growth lookup, key: CN(C)c1ccc(/C=C/c2nccc3ccccc23)cc1
92.8
